// read-out IC50, gathered for Aurora kinase A (Homo sapiens, UniProt O14965) from published studies
MEASURED ATTRIBUTE: IC50

> print(dat)
                               given.smiles  measured.attribute       result
1  Cc1c(-c2ccnc(Nc3ccc(S(=O)(=O)NC(C)C)cc3)n2)c(C)n2c1C(=O)NCC2                IC50    < 1000 nM
2  O=C1Nc2ccccc2/C1=C\c1ccc2c(/C=C/c3ccccc3)n[nH]c2c1                IC50    < 5000 nM
3  COc1cccc(Cn2nc(Nc3cc(C)[nH]n3)c3ccccc3c2=O)c1                IC50  1 to 100 nM
4  c1ccc(COc2cccc(Nc3nccc(-c4nccs4)n3)c2)cc1                IC50    > 2000 nM
5  COc1cc2c(Oc3ccc(NC(=O)Nc4ccc(C(F)(F)F)cc4)cc3)ccnc2cc1OCC[C@@H](N)C(=O)O                IC50    < 2000 nM
